Test system: FAB9
protocol_notes: qHTS profiling for inhibitors of Plasmodium falciparum proliferation (AID 504749); also: nearly all actives have a fitted effect of over 60% in size; also: potency is read from the fitted curve at half-maximal effect
details: P. falciparum in erythrocytes, SYBR Green DNA, 72 h; series mostly up to 28.7 µM
Results filed as inconclusive are left out. Active and inactive are the calls of the source. Calls follow the shape of the dose curve; as a rule, active = well fitted inhibition curve with a large enough effect; inconclusive = small, poorly fitted or top-dose-only effect; inactive = flat fitted curve, though single readings scatter.
observed_property: Potency

INSERT INTO assay_data (compound, observed_property, observed_measurement) VALUES
  ('CCOC(=O)c1c(N)sc2c1CCN(Cc1ccccc1)C2', 'Potency', '4.47 µM (active)'),
  ('CC(=O)Nc1ncc([N+](=O)[O-])s1', 'Potency', 'inactive'),
  ('CCC(C(=O)OCCOCCN(CC)CC)c1ccccc1 (stereo not drawn)', 'Potency', 'inactive');

Hey, just so you know, these numbers are from PubChem BioAssay (NCATS).
